Molecular target: PLD (phospholipase D)
Construct: fused on or other part: N-terminal polyhistidine tag (pFastBac HTc) on either enzyme
Assay: In vitro assay of PLD activity ([3H]-choline release from labelled PC)
Type: biochemical, human
Details: Table 1, monocyclic thiazolidinones of Formula I; PLD isoform not stated; read-out: IC50
pIC50: −log10 of the molar value.
measure.name: pIC50

1. O=C(O)c1cccc(-c2ccc(/C=C3\SC(=S)N(Cc4ccccc4)C3=O)o2)c1 [Compound 16] :: > 6.05
2. O=C(O)c1cccc(-c2ccc(/C=C3\SC(=S)N(c4cccc(F)c4)C3=O)o2)c1 [Compound 18] :: > 6.40
3. Cc1ccc(N2C(=O)/C(=C/c3ccc(-c4cccc(C(=O)O)c4)o3)SC2=S)c(C)c1 [Compound 19] :: > 6.40
4. O=C(O)c1ccc(-c2ccc(/C=C3\SC(=S)N(Cc4ccccc4)C3=O)o2)cc1 [Compound 14] :: > 6.40
